subject of test: pichia pastoris lysyl oxidase (PPLO) (Komagataella pastoris (Yeast) (Pichia pastoris))
Sequence (Q96X16 entry or part of it): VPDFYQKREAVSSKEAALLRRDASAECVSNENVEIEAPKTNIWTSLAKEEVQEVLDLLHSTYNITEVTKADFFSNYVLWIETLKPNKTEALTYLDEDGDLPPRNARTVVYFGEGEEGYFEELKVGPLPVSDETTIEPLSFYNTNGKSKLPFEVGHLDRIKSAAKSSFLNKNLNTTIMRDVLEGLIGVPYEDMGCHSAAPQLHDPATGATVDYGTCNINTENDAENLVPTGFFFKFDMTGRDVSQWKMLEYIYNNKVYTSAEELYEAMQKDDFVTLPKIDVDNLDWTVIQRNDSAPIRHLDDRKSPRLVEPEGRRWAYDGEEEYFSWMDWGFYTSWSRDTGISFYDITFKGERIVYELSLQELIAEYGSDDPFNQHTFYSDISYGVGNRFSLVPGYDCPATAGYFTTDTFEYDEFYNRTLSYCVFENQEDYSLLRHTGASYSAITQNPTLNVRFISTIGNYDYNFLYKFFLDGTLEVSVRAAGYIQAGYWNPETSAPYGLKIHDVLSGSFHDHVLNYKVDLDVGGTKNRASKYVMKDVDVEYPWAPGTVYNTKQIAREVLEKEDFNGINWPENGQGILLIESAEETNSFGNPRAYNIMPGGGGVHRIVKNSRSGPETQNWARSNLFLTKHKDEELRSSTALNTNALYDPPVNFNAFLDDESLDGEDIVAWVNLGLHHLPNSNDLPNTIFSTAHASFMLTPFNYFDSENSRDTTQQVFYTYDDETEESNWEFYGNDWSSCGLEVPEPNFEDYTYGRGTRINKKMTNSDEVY
pIC50: −log10 of the molar value.

molecule | pIC50
CCN(CC)C(=O)C(N)CC#CCN (stereo not shown) [R = NEt2] | 2.30

====

subject of test: arthrobacter globiformis amine oxidase (AGAO) (Arthrobacter globiformis)
test method notes: Arthrobacter globiformis amine oxidase inhibition
Format: biochemical
run conditions: determined on the basis of reversible competitive inhibition; read-out: IC50 (30 min) AGAO

molecule | IC50 [µM]
CCN(CC)C(=O)C(N)CC#CCN (stereo not shown) | 7

====

subject of test: arthrobacter globiformis amine oxidase (AGAO) (Arthrobacter globiformis, UniProt P46881)
test method notes: Arthrobacter globiformis amine oxidase inhibition
Format: biochemical
run conditions: 30 min

molecule | IC50, µM
CCOC(=O)CNC(=O)CNC(=O)C(N)CC#CCN (centres unmarked) | 3500
NCC#CCC(N)C(=O)NCCc1ccccc1 (centres unmarked) | 250
